Assay: Half life in Sprague-Dawley rat at 20 mg/kg, po by LC-MS/MS analysis
Format: ADME, organism-based
Conditions: in vivo
quantity kind: half-life (min)
State the answer as a number, implicitly in min.

Requested read-out: half-life. Entry: Cn1cc(-c2cnc(Nc3ccc(C#N)nc3)nc2N[C@H]2CCCNC2)cn1
318

====

Assay: Antiproliferative activity against human HCT116-MTAP null cells assessed as reduction in cell growth incubated for 72 hrs by MTT assay
Assay type: functional, cell-based
As shown below, each of these molecules has a reported IC50 value.
Write the value in nM as a bare number.

>>> experimental_value("Cc1cc2cc(C(=O)N(Cc3ccc(C(F)(F)F)cn3)[C@@H]3CCCc4cn[nH]c43)ccc2nc1N")
10

Field: next molecule
IC50 for Nc1nc2cc(F)c(C(=O)N(Cc3ccc(C(F)(F)F)cn3)C34CC(C3)C4)cc2c2c1COC2 ?
8

====

Target: Serine-protein kinase ATM (Homo sapiens, UniProt Q13315)
quantity kind: pIC50
pIC50 here is simply -log10 of the concentration when that concentration is written in mol/L.

>>> experimental_value("Cn1c(=O)n2c3ccccc3oc3c(-c4ccc(OCCCN5CCCCC5)nc4)c(F)cc4ncc1c2c43")
9.35

Field: next compound
// fetch Serine-protein kinase ATM (Homo sapiens, UniProt Q13315) pIC50 for COc1cc2ncn(-c3cc(OCc4ccccc4C(F)(F)F)c(C(N)=O)s3)c2cc1OC [GW843682X]
6.32

====

Test: AUC (0 to t) in Sprague-Dawley rat at 20 mg/kg, po by LC-MS/MS analysis
Assay type: ADME, organism-based
Conditions: in vivo, po, 20 mg/kg
quantity kind: AUCt (ng·h/mL)
Give the value, in units of ng·h/mL, as a plain number.

Reported AUCt, compound Cn1cc(-c2cnc(Nc3ccc(C#N)nc3)nc2N[C@H]2CCCNC2)cn1 : ____
1370

====

Target: DNA repair protein RAD51 homolog 1 (Homo sapiens, UniProt Q06609)
Sequence (Q06609 whole entry): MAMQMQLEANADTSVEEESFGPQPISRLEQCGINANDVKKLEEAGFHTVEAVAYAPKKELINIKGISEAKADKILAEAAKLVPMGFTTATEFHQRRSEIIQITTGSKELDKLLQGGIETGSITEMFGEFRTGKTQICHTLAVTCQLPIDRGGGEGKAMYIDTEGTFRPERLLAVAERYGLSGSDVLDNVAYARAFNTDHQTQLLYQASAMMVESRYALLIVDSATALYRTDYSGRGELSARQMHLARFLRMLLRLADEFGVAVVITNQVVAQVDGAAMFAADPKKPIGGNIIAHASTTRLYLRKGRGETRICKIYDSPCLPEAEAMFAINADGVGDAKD
quantity kind: pIC50
Quick note: pIC50 values are minus log10 of concentrations in mol/L.

Item: O=c1nc(/C=C/c2cccnc2)n(Cc2ccc(I)cc2)c2ccccc12 Test system: DNA repair protein RAD51 homolog 1 (Homo sapiens, UniProt Q06609) Read-out: pIC50 Value: ?
6.14

====

Biological target: Serine/threonine-protein kinase mTOR (Homo sapiens)
quantity kind: pIC50
Please keep in mind that pIC50 is minus log10 of the molar concentration; only the number is needed.

Fill in the recorded pIC50 for this compound, with Serine/threonine-protein kinase mTOR (Homo sapiens) as test system: C[C@@H]1COCCN1c1cc([C@]2(O)C[C@H]3CC[C@@H](C2)O3)c2cnn(-c3cc[nH]n3)c2n1
6.92

====

Tested on: MDA-MB-436
Test: Antiproliferative activity against human MDA-MB-436 cells assessed as reduction in cell viability
Format: functional, cell-based
quantity kind: IC50 (µM)
Field: numeric (µM). Do not append units.

# value lookup — system MDA-MB-436, readout IC50, item O=C(c1cc(Cc2n[nH]c(=O)c3ccccc23)ccc1F)N1CCN(C(=O)C2CC2)CC1
23.9

====

Below: a set of entries, each annotated with reported IC50.
Target: Serine/threonine-protein kinase ATR (Homo sapiens)
Sequence (Q13535 whole entry): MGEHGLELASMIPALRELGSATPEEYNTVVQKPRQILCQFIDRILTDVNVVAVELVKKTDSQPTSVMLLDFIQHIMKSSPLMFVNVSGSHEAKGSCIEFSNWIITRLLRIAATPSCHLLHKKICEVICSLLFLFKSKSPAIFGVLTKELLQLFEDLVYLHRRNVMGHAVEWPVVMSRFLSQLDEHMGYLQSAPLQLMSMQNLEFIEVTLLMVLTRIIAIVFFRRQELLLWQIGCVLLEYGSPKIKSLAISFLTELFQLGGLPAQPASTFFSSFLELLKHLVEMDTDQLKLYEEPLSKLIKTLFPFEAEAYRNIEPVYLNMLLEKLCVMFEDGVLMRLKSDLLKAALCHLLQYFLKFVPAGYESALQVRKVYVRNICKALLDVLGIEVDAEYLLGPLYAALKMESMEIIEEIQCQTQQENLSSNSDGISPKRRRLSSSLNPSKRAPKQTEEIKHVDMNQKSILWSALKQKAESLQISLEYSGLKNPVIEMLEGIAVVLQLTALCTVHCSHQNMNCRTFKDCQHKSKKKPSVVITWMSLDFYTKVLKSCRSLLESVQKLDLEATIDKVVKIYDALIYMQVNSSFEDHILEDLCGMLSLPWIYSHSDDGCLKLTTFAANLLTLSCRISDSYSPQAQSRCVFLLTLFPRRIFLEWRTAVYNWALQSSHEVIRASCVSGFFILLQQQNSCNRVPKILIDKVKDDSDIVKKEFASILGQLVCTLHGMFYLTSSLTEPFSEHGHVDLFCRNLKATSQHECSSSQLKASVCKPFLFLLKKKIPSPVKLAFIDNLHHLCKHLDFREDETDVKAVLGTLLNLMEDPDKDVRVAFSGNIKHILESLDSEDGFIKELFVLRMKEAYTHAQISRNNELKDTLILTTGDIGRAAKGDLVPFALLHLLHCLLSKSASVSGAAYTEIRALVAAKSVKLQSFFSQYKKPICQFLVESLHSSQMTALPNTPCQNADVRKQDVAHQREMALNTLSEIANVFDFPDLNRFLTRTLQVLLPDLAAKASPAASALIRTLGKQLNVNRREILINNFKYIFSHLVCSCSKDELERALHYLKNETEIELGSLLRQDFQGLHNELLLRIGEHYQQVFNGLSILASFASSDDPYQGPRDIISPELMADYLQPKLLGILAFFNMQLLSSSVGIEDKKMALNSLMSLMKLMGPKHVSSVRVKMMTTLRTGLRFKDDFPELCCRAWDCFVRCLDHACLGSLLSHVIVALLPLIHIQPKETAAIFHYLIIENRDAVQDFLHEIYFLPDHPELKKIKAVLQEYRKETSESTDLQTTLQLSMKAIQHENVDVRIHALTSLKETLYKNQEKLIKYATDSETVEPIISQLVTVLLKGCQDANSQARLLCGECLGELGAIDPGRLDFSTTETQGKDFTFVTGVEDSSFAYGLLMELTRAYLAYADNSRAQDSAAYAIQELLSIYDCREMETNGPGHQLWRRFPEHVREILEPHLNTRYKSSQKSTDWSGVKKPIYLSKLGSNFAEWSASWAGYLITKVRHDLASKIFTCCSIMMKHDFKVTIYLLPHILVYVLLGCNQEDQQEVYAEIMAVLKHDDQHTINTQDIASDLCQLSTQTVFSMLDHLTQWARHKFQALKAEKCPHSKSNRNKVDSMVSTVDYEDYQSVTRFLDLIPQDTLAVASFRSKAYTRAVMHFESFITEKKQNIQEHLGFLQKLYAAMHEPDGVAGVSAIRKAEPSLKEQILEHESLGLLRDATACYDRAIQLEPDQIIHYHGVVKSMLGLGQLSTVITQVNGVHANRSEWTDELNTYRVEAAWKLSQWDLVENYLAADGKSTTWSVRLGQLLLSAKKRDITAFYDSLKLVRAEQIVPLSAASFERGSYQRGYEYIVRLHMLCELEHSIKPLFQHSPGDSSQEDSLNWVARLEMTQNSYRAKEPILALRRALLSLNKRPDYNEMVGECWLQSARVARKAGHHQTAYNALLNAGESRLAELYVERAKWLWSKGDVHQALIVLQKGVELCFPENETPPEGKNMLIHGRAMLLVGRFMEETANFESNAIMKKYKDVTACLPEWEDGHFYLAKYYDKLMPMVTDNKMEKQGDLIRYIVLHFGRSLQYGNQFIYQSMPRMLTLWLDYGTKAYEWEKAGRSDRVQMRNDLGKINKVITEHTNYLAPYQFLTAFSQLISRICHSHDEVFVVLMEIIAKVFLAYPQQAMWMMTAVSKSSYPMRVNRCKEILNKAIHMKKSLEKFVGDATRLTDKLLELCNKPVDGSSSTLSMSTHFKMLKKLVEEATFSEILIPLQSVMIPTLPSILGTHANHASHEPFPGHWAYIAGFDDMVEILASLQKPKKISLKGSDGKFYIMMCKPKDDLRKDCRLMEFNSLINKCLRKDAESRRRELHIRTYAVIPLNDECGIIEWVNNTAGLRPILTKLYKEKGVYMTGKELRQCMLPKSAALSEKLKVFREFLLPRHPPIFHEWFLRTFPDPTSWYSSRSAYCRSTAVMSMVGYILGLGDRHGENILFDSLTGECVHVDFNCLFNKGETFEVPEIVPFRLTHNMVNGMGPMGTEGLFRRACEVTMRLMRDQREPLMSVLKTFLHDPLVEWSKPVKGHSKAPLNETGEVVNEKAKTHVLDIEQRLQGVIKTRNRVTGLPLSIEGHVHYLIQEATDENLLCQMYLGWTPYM
Assay: Inhibition of human recombinant ATR incubated for 40 mins by fluorescence based analysis
Output spec: scalar in nM, unitless text.

>>> experimental_value("C[C@@H]1COC[C@H]2COc3c(nc(-c4ccnc5[nH]ccc45)nc3C(C)(C)C#N)N21")
16
>>> experimental_value("C[C@@H]1COCCN1c1cc([C@]2(O)C[C@H]3CC[C@@H](C2)O3)c2cnn(-c3cc[nH]n3)c2n1")
1

We next turn to a different compound, shown below.
Quick check: IC50 of C[C@@H]1COCCN1c1nc(-c2ccnn2C)c2c(n1)c(-c1ccn[nH]1)nn2C ?
1

// provenance: ChEMBL document CHEMBL6127039
